Reference source: patent US20230235012A1

// log10 of MFI lookup, one value per entry
- TESTED_TARGET: T1, human CTLA-4, full-length, expressed on transfected Expi293 cells (human, UniProt P16410 36-223)
- T1 construct: whole, on cells
- T1 sequence (P16410 36-223): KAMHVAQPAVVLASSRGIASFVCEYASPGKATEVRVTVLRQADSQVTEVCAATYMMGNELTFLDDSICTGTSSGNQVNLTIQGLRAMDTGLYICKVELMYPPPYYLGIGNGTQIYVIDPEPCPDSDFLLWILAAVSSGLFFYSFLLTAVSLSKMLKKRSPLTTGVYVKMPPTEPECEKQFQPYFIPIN
- PROCEDURE_DETAILS: flow cytometry, 100 nM, Expi293 cells with human CTLA-4
The figures below represent log10 of MFI, where MFI is stated in MFI.

Worked examples, 3 binders total:
variant ICOSL IgV-Fc fusion N52R/N57F/Q100R (Fc fusion) DTQEKEVRAMVGSDVELSCACPEGSRFDLNDVYVYWQTSESKTVVTYHIPQRSSLEFVDSRYRNRALMSPAGMLRGDFSLRLFNVTPQDEQKFHCLVLSRSLGFQEVLSVEVTLHVAANFSVGSGGGGSEPKSSDKTHTCPPCPAPEAEGAPSVFLFPPKPKDTLMISRTPEVTCVVVDVSHEDPEVKFNWYVDGVEVHNAKTKPREEQYNSTYRVVSVLTVLHQDWLNGKEYKCKVSNKALPAPIEKTISKAKGQPREPQVYTLPPSREEMTKNQVSLTCLVKGFYPSDIAVEWESNGQPENNYKTTPPVLDSDGSFFLYSKLTVDKSRWQQGNVFSCSVMHEALHNHYTQKSLSLSPG    5.67
variant ICOSL IgV-Fc fusion N52C/N57E/Q100S (Fc fusion) DTQEKEVRAMVGSDVELSCACPEGSRFDLNDVYVYWQTSESKTVVTYHIPQCSSLEEVDSRYRNRALMSPAGMLRGDFSLRLFNVTPQDEQKFHCLVLSSSLGFQEVLSVEVTLHVAANFSVGSGGGGSEPKSSDKTHTCPPCPAPEAEGAPSVFLFPPKPKDTLMISRTPEVTCVVVDVSHEDPEVKFNWYVDGVEVHNAKTKPREEQYNSTYRVVSVLTVLHQDWLNGKEYKCKVSNKALPAPIEKTISKAKGQPREPQVYTLPPSREEMTKNQVSLTCLVKGFYPSDIAVEWESNGQPENNYKTTPPVLDSDGSFFLYSKLTVDKSRWQQGNVFSCSVMHEALHNHYTQKSLSLSPG    4.03
variant ICOSL IgV-Fc fusion N52Q/N57S/Q100A (Fc fusion) DTQEKEVRAMVGSDVELSCACPEGSRFDLNDVYVYWQTSESKTVVTYHIPQQSSLESVDSRYRNRALMSPAGMLRGDFSLRLFNVTPQDEQKFHCLVLSASLGFQEVLSVEVTLHVAANFSVGSGGGGSEPKSSDKTHTCPPCPAPEAEGAPSVFLFPPKPKDTLMISRTPEVTCVVVDVSHEDPEVKFNWYVDGVEVHNAKTKPREEQYNSTYRVVSVLTVLHQDWLNGKEYKCKVSNKALPAPIEKTISKAKGQPREPQVYTLPPSREEMTKNQVSLTCLVKGFYPSDIAVEWESNGQPENNYKTTPPVLDSDGSFFLYSKLTVDKSRWQQGNVFSCSVMHEALHNHYTQKSLSLSPG    5.50

QUERY: // log10 of MFI lookup, key: variant ICOSL IgV-Fc fusion N52V/N57T/Q100L (Fc fusion) DTQEKEVRAMVGSDVELSCACPEGSRFDLNDVYVYWQTSESKTVVTYHIPQVSSLETVDSRYRNRALMSPAGMLRGDFSLRLFNVTPQDEQKFHCLVLSLSLGFQEVLSVEVTLHVAANFSVGSGGGGSEPKSSDKTHTCPPCPAPEAEGAPSVFLFPPKPKDTLMISRTPEVTCVVVDVSHEDPEVKFNWYVDGVEVHNAKTKPREEQYNSTYRVVSVLTVLHQDWLNGKEYKCKVSNKALPAPIEKTISKAKGQPREPQVYTLPPSREEMTKNQVSLTCLVKGFYPSDIAVEWESNGQPENNYKTTPPVLDSDGSFFLYSKLTVDKSRWQQGNVFSCSVMHEALHNHYTQKSLSLSPG
RESULT: 4.06

QUERY: // same read-out, input: variant ICOSL IgV-Fc fusion N52A/N57H/Q100S (Fc fusion) DTQEKEVRAMVGSDVELSCACPEGSRFDLNDVYVYWQTSESKTVVTYHIPQASSLEHVDSRYRNRALMSPAGMLRGDFSLRLFNVTPQDEQKFHCLVLSSSLGFQEVLSVEVTLHVAANFSVGSGGGGSEPKSSDKTHTCPPCPAPEAEGAPSVFLFPPKPKDTLMISRTPEVTCVVVDVSHEDPEVKFNWYVDGVEVHNAKTKPREEQYNSTYRVVSVLTVLHQDWLNGKEYKCKVSNKALPAPIEKTISKAKGQPREPQVYTLPPSREEMTKNQVSLTCLVKGFYPSDIAVEWESNGQPENNYKTTPPVLDSDGSFFLYSKLTVDKSRWQQGNVFSCSVMHEALHNHYTQKSLSLSPG
RESULT: 5.51

QUERY: Also check variant ICOSL IgV-Fc fusion N52G/N57V (Fc fusion) DTQEKEVRAMVGSDVELSCACPEGSRFDLNDVYVYWQTSESKTVVTYHIPQGSSLEVVDSRYRNRALMSPAGMLRGDFSLRLFNVTPQDEQKFHCLVLSQSLGFQEVLSVEVTLHVAANFSVGSGGGGSEPKSSDKTHTCPPCPAPEAEGAPSVFLFPPKPKDTLMISRTPEVTCVVVDVSHEDPEVKFNWYVDGVEVHNAKTKPREEQYNSTYRVVSVLTVLHQDWLNGKEYKCKVSNKALPAPIEKTISKAKGQPREPQVYTLPPSREEMTKNQVSLTCLVKGFYPSDIAVEWESNGQPENNYKTTPPVLDSDGSFFLYSKLTVDKSRWQQGNVFSCSVMHEALHNHYTQKSLSLSPG
RESULT: 4.72

QUERY: Request: variant ICOSL IgV-Fc fusion N52L/N57V (Fc fusion) DTQEKEVRAMVGSDVELSCACPEGSRFDLNDVYVYWQTSESKTVVTYHIPQLSSLEVVDSRYRNRALMSPAGMLRGDFSLRLFNVTPQDEQKFHCLVLSQSLGFQEVLSVEVTLHVAANFSVGSGGGGSEPKSSDKTHTCPPCPAPEAEGAPSVFLFPPKPKDTLMISRTPEVTCVVVDVSHEDPEVKFNWYVDGVEVHNAKTKPREEQYNSTYRVVSVLTVLHQDWLNGKEYKCKVSNKALPAPIEKTISKAKGQPREPQVYTLPPSREEMTKNQVSLTCLVKGFYPSDIAVEWESNGQPENNYKTTPPVLDSDGSFFLYSKLTVDKSRWQQGNVFSCSVMHEALHNHYTQKSLSLSPG
RESULT: 5.18
